All figures here come from the supplement of paper PMC10065799.

In this section we review reported phosphorylation enrichment values for a set of sequences.
- Test system: AncSZ
- PROCEDURE_DETAILS: phosphorylation enrichment, bacterial display (enrichment ratio); higher = better substrate or ligand; peptides without Tyr show the background
ASSAY_READOUT: phosphorylation enrichment

• KKFFSYAWPFF [BRDT_Y291_H288Y_YF] = 1.07
• AKRKNYAPVAM [CFAP47_Y557] = 0.562
• PQQLWYTHEKK [UBTF_Y207] = 0.652
• GADDSYYTVRS [ZAP70_Y492_A495V] = 1.43
• HSFQCYGQNEA [ENTPD3_Y262_R264Q] = 0.996
• ETKKQYDSFTY [TMED3_Y85] = 0.735
• DISEPYEVYRI [IRF8_Y107_K108E] = 2.01
• ADLAKYICENQ [ALB_Y287] = 0.979
• PMDTYYDSTRG [DYNC2H1_Y2231] = 1.5
• PVKDGYQMAQP [CSF1R_Y873_L868P] = 0.682
• LDPMVYMNDKS [PTK2B_Y834] = 1.09
• QSAGQYSSQGL [TNNI3K_Y788] = 0.703
• LGLDEYLDKLK [FMNL2_Y352] = 1.47
• AKKVFYVIETR [SHH_Y253] = 1.12

* * *

- TARGET_DESC: MERTK (UniProt Q12866)
- Sequence (Q12866 whole entry, looked up): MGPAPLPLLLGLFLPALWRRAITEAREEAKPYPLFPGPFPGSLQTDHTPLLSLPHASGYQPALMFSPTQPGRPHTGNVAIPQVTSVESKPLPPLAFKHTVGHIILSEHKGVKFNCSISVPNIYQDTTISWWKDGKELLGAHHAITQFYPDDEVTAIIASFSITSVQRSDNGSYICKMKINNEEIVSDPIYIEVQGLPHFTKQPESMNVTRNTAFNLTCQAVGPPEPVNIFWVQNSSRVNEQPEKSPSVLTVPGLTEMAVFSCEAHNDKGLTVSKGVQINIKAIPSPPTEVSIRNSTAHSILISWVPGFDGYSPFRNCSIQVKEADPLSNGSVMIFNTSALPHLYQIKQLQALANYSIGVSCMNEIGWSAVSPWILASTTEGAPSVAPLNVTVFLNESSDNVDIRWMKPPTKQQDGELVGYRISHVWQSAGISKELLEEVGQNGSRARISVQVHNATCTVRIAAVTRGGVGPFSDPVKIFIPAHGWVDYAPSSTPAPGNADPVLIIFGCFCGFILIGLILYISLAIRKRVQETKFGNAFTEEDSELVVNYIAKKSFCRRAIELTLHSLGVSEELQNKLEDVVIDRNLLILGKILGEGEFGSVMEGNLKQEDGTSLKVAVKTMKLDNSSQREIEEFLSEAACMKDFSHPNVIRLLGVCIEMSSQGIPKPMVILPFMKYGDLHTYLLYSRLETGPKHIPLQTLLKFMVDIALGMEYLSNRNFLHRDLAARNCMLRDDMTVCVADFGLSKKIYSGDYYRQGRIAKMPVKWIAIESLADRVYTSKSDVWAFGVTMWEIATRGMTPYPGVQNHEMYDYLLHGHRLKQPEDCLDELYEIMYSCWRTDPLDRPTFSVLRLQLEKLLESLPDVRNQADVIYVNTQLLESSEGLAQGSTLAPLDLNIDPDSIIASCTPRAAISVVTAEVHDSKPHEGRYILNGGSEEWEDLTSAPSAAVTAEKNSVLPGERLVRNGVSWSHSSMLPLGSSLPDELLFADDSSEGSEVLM
- PROCEDURE_DETAILS: phosphorylation enrichment, bacterial display (enrichment ratio); higher = better substrate or ligand; peptides without Tyr show the background
Where phosphorylation enrichment equals or exceeds 0.6, the correct label is true (1); where it does not, the label is false (0).

- DDEENYENVPR [FCRL3_Y722]: false (0)
- HILQLYRCREE [ALPK3_Y342_T338I]: false (0)
- VRRVGYVSGWG [HP_Y280_G276R]: false (0)
- QNTADYYDLYG [PTPN11_Y62_G60A]: true (1)
- IQTDGDRAPEA [UHMK1_Y197_Y197D]: false (0)
- MFNPCYGLFEY [NEDD4L_Y680_Y679C]: true (1)
- TFWKKYCTFWK [CCDC70_Y125_R126C]: false (0)
- GSIQQYIFKQE [PRG4_Y1271_YF]: false (0)
- DALDNYVVRGV [PCCA_Y473_I475V]: false (0)
- RAVLLYEFVGK [NATD1_Y45_YF]: true (1)
- DSGKLYALDGL [INO80_Y1104_V1108G]: true (1)
- CTTIHYNYMHN [TP53_Y234_C238H]: false (0)
- VAMELYVFGGV [GAN_Y471]: true (1)
- KPNMNYDKLSR [FLI1_Y332]: false (0)
- RGYRVCYTPDS [PTPRF_Y450_Y450C]: true (1)
- LGQRIYQYIQS [DYRK1B_Y271]: true (1)
- HLSPEYKQNEI [GJB1_Y243_R238H]: true (1)
- FLEEEYVKAVG [TF_Y674_G671E_YF]: false (0)
- KASRKYYAMKI [AKT3_Y173_G171R]: false (0)
- NDTAGYFVIGG [SEL1L3_Y399_I401V]: true (1)
- GSCQEYTGAPF [NAXD_Y85_G81S_YF]: false (0)
- WQQQSYLDFGI [CTNNB1_Y30_S33F]: false (0)
- KGERGYPGTLG [COL4A1_Y348_P352L]: false (0)
- HESEIYCKVCF [CSRP3_Y57_YF]: true (1)
- IVEFAYNDKAV [PUM3_Y259_I264V_YF]: false (0)
- LKSEMYQKLFK [RGS13_Y146_L150F]: true (1)
- SQPASYQRRFL [PPIG_Y320_L324F]: false (0)
- TKFRNYLIPKG [CYP2C8_Y379]: false (0)
- HRTLVYGGIFL [FBP1_Y259]: false (0)
- ISHVAYCVLGK [TRRAP_Y892_R893C]: true (1)
- NPQKSYFICLY [WAS_Y83_R86C]: false (0)
- LLVVLCKYRCY [PSEN1_Y154_Y154C]: false (0)
- DSDTDYGSGYP [RNASEH2A_Y206_L202S]: false (0)
- LHVKMYNFLRS [ADGRG7_Y760_R756H]: true (1)
- LSVMSYDLGMF [GBA3_Y174]: true (1)
- THPFPYLSLEI [MLH1_Y293_L292P]: false (0)
- RPSELYFSKIG [SMG1_Y2253_YF]: true (1)
- MSRDVYSTDYY [NTRK2_Y702]: true (1)
- MARDIYRASYY [ALK_Y1278]: true (1)
- QSSALYEDRFL [ASS1_Y83_YF]: true (1)
- GRSTCYWPRPR [GAGE12J_Y10_Y9C]: false (0)
- FFRKFYNKSED [RYR1_Y4864]: false (0)
- LIDGFYRLTAD [JAK2_Y373_YF]: true (1)
- KLKRSYSSPDI [USP8_Y717]: false (0)
- VRVQLYDPDYM [CYP4A22_Y100]: true (1)
- MNPPPYSQLLS [FGF23_Y154_F157L]: false (0)
- FLTQHYDAIPQ [ANG_Y38_K41I]: true (1)
- CTIIHYNFMCN [TP53_Y234_T231I_YF]: false (0)
- ALCHYYKLNII [ETV6_Y402_R399C]: true (1)
- SQSPHYFRSGQ [GPATCH8_Y1038_R1043Q]: false (0)
- TNIKRYHIAKG [HARS1_Y150_V155G]: false (0)
- RHRSGYVLIAM [EFR3A_Y73]: false (0)
- FDDIAHIRKTL [PIK3CA_Y1021_Y1021H]: false (0)
- SVVVPYEPPEG [TP53_Y220_V225G]: false (0)
- YKGKKYKPLDL [RPL35_Y78]: false (0)

* * *

- TARGET_DESC: EPHB2 (UniProt P29323)
- Sequence (P29323 whole entry, looked up): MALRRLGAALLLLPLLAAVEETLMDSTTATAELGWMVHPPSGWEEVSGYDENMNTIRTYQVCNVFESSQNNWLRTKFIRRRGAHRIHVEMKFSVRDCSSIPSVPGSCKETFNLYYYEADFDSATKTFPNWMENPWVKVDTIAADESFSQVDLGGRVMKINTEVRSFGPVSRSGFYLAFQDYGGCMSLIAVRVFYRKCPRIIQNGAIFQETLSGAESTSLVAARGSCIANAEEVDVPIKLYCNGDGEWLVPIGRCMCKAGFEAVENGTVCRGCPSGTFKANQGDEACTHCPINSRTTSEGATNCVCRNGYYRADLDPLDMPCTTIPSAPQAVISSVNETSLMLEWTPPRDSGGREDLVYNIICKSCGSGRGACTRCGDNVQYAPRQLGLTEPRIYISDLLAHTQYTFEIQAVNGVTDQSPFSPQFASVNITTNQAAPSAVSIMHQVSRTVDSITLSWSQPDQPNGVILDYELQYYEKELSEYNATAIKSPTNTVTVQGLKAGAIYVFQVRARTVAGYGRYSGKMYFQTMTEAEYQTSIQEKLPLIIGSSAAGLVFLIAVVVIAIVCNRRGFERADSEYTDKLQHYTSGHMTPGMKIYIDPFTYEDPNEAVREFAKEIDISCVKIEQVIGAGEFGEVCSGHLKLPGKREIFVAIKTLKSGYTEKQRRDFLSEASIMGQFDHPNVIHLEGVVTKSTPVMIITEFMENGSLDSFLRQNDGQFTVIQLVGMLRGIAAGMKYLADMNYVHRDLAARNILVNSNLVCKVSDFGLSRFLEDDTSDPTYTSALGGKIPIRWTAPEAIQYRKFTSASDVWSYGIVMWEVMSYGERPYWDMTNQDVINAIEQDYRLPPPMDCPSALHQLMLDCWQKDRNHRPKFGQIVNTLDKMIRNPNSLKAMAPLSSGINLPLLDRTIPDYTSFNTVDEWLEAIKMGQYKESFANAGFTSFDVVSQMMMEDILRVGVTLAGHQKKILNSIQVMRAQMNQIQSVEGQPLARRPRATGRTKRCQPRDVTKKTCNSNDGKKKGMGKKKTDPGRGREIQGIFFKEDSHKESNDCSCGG
- PROCEDURE_DETAILS: phosphorylation enrichment, bacterial display (enrichment ratio); higher = better substrate or ligand; peptides without Tyr show the background
# key: entry, value: phosphorylation enrichment
ASSAY_READOUT: phosphorylation enrichment

* SQPASYQRRFL [PPIG_Y320_L324F] | 0.579
* QTWKTYVRQQQ [SFI1_Y164] | 0.685
* SHGKQYRVPSD [HHIPL2_Y395_R394Q] | 0.371
* GSQERYFELVE [TSC2_Y407] | 0.571
* KYWREYILSLE [GPC3_Y299] | 0.569
* GGSTYYIDTNA [ACTL6A_Y69_P66S] | 0.555
* NLSVPYDSSLK [ABCC8_Y1353_R1352P] | 0.509
* MNPPPYSQLLS [FGF23_Y154_F157L] | 0.606
* PMWHPYKADVT [TP53TG5_Y255_V257A] | 0.572
* IIWDSYTTNKM [GNB4_Y85] | 0.656
* SLNAVYPRAGR [OAS3_Y376_S381R] | 0.414
* KLLRLYAVVTR [LYN_Y306_V303L] | 0.594
* DAAEDYAEGVR [DHODH_Y194] | 0.671
* GPIFRYDSGGA [CYP11B1_Y81_L83S] | 0.418
* DLVRPYVHKIL [SF3B1_Y570] | 0.586
* KLNNEYLELNF [MME_Y497_YF] | 0.715
* THPFLYLTLEI [MLH1_Y293_S295T] | 0.889
* GIADDYDKKKP [EIF1_Y54_L59P] | 0.502
* TTSQPYRRLCS [USH2A_Y534_C536R] | 0.393
* DPASAYADEVK [ETNPPL_Y189_S185P] | 0.469
* SVETPYGSVTF [NDRG2_Y47] | 0.438
* EALDFYGEVKT [PTEN_Y155_R159K] | 0.722
* QNTGFYFDLFG [PTPN11_Y62_D61Y_YF] | 1.25
* DAANNYARGHY [TUBA3E_Y103_S101N] | 0.37
* DPLLTYQFPPK [LMNA_Y481_R482Q] | 1.27
* NFATLYLKIFH [PDE6B_Y219_YF] | 0.599
* LVMFIYDIFGM [SCN1A_Y1684_A1685D] | 2.92
* MSRDVYSTDYY [NTRK2_Y702] | 2.65
* ELETLYKKAVK [CC2D2A_Y381] | 0.47

* * *

- TARGET_DESC: SHP2-C SH2;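 further: peptide library displayed on the E. coli surface as eCPX fusions, selected cells deep-sequenced, score is each peptide's frequency after selection divided by its frequency in the input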
- PROCEDURE_DETAILS: SH2 binding enrichment of the phosphorylated peptide, bacterial display (enrichment ratio); higher = better substrate or ligand; peptides without Tyr show the background
// reported SH2 binding enrichment per item
ASSAY_READOUT: SH2 binding enrichment

• IRSGIYYKPES [L2HGDH_Y102_H98R] = 0.419
• SVTCTYSPALK [TP53_Y126_N131K] = 0.518
• FRIGPYQPNVP [MATR3_Y784_YF] = 0.754
• GADAIYDHINE [UQCR10_Y44] = 0.561
• KEDSAYGSQSV [NFKB2_Y868] = 0.756
• RRERDYTNLPS [CSF1R_Y923] = 0.485
• VKPENYRRLDV [VHL_Y175_I180V] = 0.635
• NGSKGYAFVHF [PABPC5_Y147_YF] = 25.9
• SHGQDYLVGNK [GSTA1_Y147] = 0.564
• KPAFSYTSSST [SIM1_Y356] = 0.715
• HSVVQYVGGVM [FGGY_Y136_L134V] = 2.89
• IGEVVYQWAVM [GRIN2A_Y502_R504W] = 0.61
• IVKAFYVRARA [AIPL1_Y268_YF] = 1.2
• KASGKYYAMKI [AKT3_Y173] = 1.21
• SSTAMYSAPGR [PSMB1_Y8] = 0.557
• QAYSWYQHQRA [NDST1_Y714_R709Q] = 1.17
• TNEFEYDELIV [TGM1_Y136_D132N_YF] = 0.679
• DWWQEYVLNES [TGM1_Y267_R264W] = 0.588
• LRGVIYVILRK [PMP22_Y153_S149R] = 0.359
• HVIKLFGACSQ [RET_Y791_Y791F] = 0.979
• AEKPKYQISNI [TJP1_Y1602_N1605S] = 0.516
• DDKQPYEKKAE [HMGB1_Y144_A149E] = 0.756
• CTIIHYNFMCN [TP53_Y234_T231I_YF] = 1.73
• IQTDGDRAPEA [UHMK1_Y197_Y197D] = 1.03
• SVETPYGSVTF [NDRG2_Y47] = 0.527
• DVCKKYAEAKD [ALB_Y343_N342K] = 0.431
• FGLQAYTKVKT [ALDH2_Y502_E504K_YF] = 1.65
• RDMMDYMPQGV [CYP21A2_Y259_L261P] = 0.8
• SGDDGYAKDAK [TENM4_Y1530] = 0.577
